Tested on: SUDHL10
Assay: Induction of cytotoxicity (CellTiter-Glo, 5 h), SUDHL10
Settings: Homo sapiens, SU-DHL10, 5 h, read-out: Cytotox SUDHL10 [M] (median), SUDHL10 cells, cytotoxicity induction, CellTiter-Glo, 5 h, median
quantity-name: IC50

1. Cc1nn(C)c2c1-c1cccc3c(CCCOc4cccc5ccccc45)c(C(=O)O)n(c13)CCCCOC2 (single isomer, unassigned; enantiomer 1) :: > 3.3e-05 M
2. CN1CCCn2c(C(=O)O)c(CCCOc3cccc4ccccc34)c3cccc(c32)-c2c(nn3c2OCCC3)C1 (racemic) :: > 3.3e-05 M
3. COc1ccc(OCc2nn(C)c3c2-c2cccc4c(CCCOc5cccc6ccccc56)c(C(=O)O)n(c24)CCCCOC3)cc1 (racemic) [Example 319] :: 2.83e-05 M
4. Cc1ccc2c(C(C)CCOc3cccc4c3CCCC4)c(C(=O)O)n3c2c1-c1c(nn(C)c1C)COCCCC3 (racemic) :: 2.97e-05 M
5. Cc1ccc2c(C(C)CCOc3cccc4ccccc34)c(C(=O)O)n3c2c1-c1c(nn(C)c1C)COCCCC3 (racemic) :: > 3.3e-05 M
6. Cc1c2c(nn1C)COCCCCn1c(C(=O)O)c(CCCOc3cccc4cc(F)ccc34)c3cccc-2c31 (racemic) :: 3.5e-06 M
7. Cn1nc(CN2CCCC2=O)c2c1COCCCCn1c(C(=O)O)c(CCCOc3cccc4ccccc34)c3cccc-2c31 (single isomer, unassigned; enantiomer 2) [Example 329] :: > 3.3e-05 M
8. Cn1nc(CN2CCCCC2)c2c1COCCCCn1c(C(=O)O)c(CCCOc3cccc4ccccc34)c3cccc-2c31 (racemic) [Example 332] :: > 3.3e-05 M
9. CC(=O)NCc1nn(C)c2c1-c1cccc3c(CCCOc4cccc5ccccc45)c(C(=O)O)n(c13)CCCCOC2 (racemic) [Example 339] :: > 3.3e-05 M
10. CCc1nn(C)c2c1-c1cccc3c(CCCOc4cccc5c4CCCC5)c(C(=O)O)n(c13)CCCCOC2 (racemic) :: > 3.3e-05 M
11. Cc1c2c(nn1C)CNCCCCn1c(C(=O)O)c(CCCOc3cccc4ccccc34)c3cccc-2c31 (racemic) :: > 3.3e-05 M

---

Tested on: A2780
Experiment: Anti-proliferative effect (CellTiter-Glo, 72 h), A2780
Format: cell-based
Conditions: A2780 cells, median, read-out: IC50 antiproliferation assay A2780 [M] (median)
quantity-name: IC50

1) COc1ccc2c(CCCOc3cccc4ccccc34)c(C(=O)O)n3c2c1-c1c(nn(C)c1C)COCCCC3 (single isomer, unassigned; enantiomer 2) [Example 351] :: > 3.3e-05 M
2) Cn1nc(COc2ccc(S(C)(=O)=O)cc2)c2c1COCC=CCn1c(C(=O)O)c(CCCOc3cccc4ccccc34)c3cccc-2c31 (single isomer, unassigned) [Example 1-53] :: 2.48e-05 M
3) Cc1c2c(nn1C)COCCCn1c(C(=O)O)c(CCCOc3cccc4ccccc34)c3cccc-2c31 (single isomer, unassigned; enantiomer 2) [Example 065] :: > 3.3e-05 M
4) Cc1ccc2c(CCCOc3cccc4ccccc34)c(C(=O)O)n3c2c1-c1c(nn(C)c1C)COCCCC3 (single isomer, unassigned; enantiomer 2) [Example 077] :: 2.06e-05 M
5) CCCc1nn(C)c2c1-c1c(C)ccc3c(CCCOc4cccc5ccccc45)c(C(=O)O)n(c13)CCCCOC2 (racemic) [Example 187] :: > 3.3e-05 M
6) COCc1nn(C)c2c1-c1cccc3c(CCCOc4cccc5ccccc45)c(C(=O)O)n(c13)CCCCCOC2 (single isomer, unassigned; enantiomer 2) [Example 179] :: > 3.3e-05 M
7) Cc1c2c(nn1C)COCCCCn1c(C(=O)O)c(CCc3cccc4ccccc34)c3cccc-2c31 (racemic) [Example 354] :: > 3.3e-05 M

---

Tested on: SUDHL10
Assay: Induction of caspase-3/7 activity (Caspase-Glo 3/7), SUDHL10
Format: cell-based
Details: Homo sapiens, SU-DHL10, 3 h, caspase-3/7 induction, SUDHL10 cells, 3 h treatment; median
quantity-name: EC50

1. Cc1ccc2c(CCCOc3cccc4ccccc34)c(C(=O)O)n3c2c1-c1c(C)nn(C)c1COCCCC3 (single isomer, unassigned; enantiomer 1) [Example 028] :: > 33 µM
2. Cn1nc(CN2CCOCC2)c2c1COCCCn1c(C(=O)O)c(CCCOc3cccc4ccccc34)c3cccc-2c31 (racemic) :: > 33 µM
3. Cn1nc2c(c1CN1CCOCC1)-c1cccc3c(CCCOc4cccc5ccccc45)c(C(=O)O)n(c13)CCOCCOC2 (racemic) :: > 33 µM

---

Molecular target: MCL-1 (Homo sapiens)
Sequence (Q07820 whole entry): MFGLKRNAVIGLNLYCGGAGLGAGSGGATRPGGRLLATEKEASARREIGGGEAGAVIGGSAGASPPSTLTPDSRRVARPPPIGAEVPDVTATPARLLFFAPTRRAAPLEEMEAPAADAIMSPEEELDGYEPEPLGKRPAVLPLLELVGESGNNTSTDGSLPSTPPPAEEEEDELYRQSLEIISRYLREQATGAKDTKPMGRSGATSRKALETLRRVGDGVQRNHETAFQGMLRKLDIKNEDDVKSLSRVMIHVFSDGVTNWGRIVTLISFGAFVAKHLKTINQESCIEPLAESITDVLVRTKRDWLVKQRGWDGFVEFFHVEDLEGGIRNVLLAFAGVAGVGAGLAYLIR
Assay: Protein-protein interaction assay MCL-1/Noxa BH3 peptide (MCL-1 assay), TR-FRET
Assay type: binding
Settings: MBP-MCL-1 / Noxa BH3-derived peptide, median
Below: a set of entries, each annotated with reported log10(IC50).
quantity-name: log10(IC50) (log10 of the value in nM)

1. CN1CCCn2c(C(=O)O)c(CCCOc3cccc4ccccc34)c3cccc(c32)-c2c(COc3ccc(-n4ccccc4=O)cc3)nn(C)c2C1 (single isomer, unassigned; enantiomer 2) [Example 1-116] :: 1.14
2. COCCn1nc2c(c1C1CC1)-c1cccc3c(CCCOc4cccc5ccccc45)c(C(=O)O)n(c13)CCCCOC2 (racemic) [Example 084] :: 0.49
3. Cc1ccc2c(CCCOc3cccc4ccccc34)c(C(=O)O)n3c2c1-c1c(nn(C)c1C)COCCCC3 (racemic) [Example 075] :: 0.23
4. Cn1nc(CN2CC(F)(F)C2)c2c1COCCCCn1c(C(=O)O)c(CCCOc3cccc4ccccc34)c3cccc-2c31 (racemic) [Example 180] :: 1.25
5. CC(C)OCc1nn(C)c2c1-c1cccc3c(CCCOc4cccc5ccccc45)c(C(=O)O)n(c13)CCCN(C)C2 (single isomer, unassigned) [Example 1-71] :: 1.45
6. Cc1c2c(nn1C)COCCCCn1c(C(=O)O)c(CCCOc3cccc4ccccc34)c3cccc-2c31 (racemic) [Example 1-36] :: 0.52
7. O=C(O)c1c(CCCOc2cccc3ccccc23)c2cccc3c2n1CCCCOCc1nn2c(c1-3)COCC2 (single isomer, unassigned) [Example 251] :: 1.68
8. Cc1ccc2c(C(C)CCOc3cccc4cc(F)ccc34)c(C(=O)O)n3c2c1-c1c(nn(C)c1C)COCCCC3 (single isomer, unassigned) [Example 277] :: 0.11
9. CCCc1nn(C)c2c1-c1c(C)ccc3c(CCCOc4cccc5ccccc45)c(C(=O)O)n(c13)CCCN(C)C2 (single isomer, unassigned; enantiomer 1) [Example 196] :: 0.21
10. CCc1c2c(nn1C)COCCCCn1c(C(=O)O)c(CCCOc3cccc4ccccc34)c3ccc(C)c-2c31 (single isomer, unassigned; enantiomer 1) [Example 154] :: 0.11
11. Cn1nc(CN2CCCCC2)c2c1COCCCCn1c(C(=O)O)c(CCCOc3cccc4ccccc34)c3cccc-2c31 (single isomer, unassigned; enantiomer 2) [Example 334] :: 1.96
12. CC(C)OCc1nn(C)c2c1-c1cccc3c(CCCOc4cccc5ccccc45)c(C(=O)O)n(c13)CCCCN(C)C2 (racemic) [Example 1-73] :: 0.85

---

Test system: SUDHL10
Assay: Induction of cytotoxicity (CellTiter-Glo, 5 h), SUDHL10
Conditions: read-out: Cytotox SUDHL10 [M] (median); SUDHL10 cells, cytotoxicity induction, CellTiter-Glo, 5 h, median
Below: a set of entries, each annotated with reported IC50.
quantity-name: IC50

1. Cc1ccc2c(OCCCc3c(C(=O)O)n4c5c(cccc35)-c3c(nn(C)c3C)COCCCC4)cccc2c1 (single isomer, unassigned; enantiomer 2) :: > 3.3e-05 M
2. COc1ccc2c(CCCOc3cccc4ccccc34)c(C(=O)O)n3c2c1-c1c(nn(C)c1C)COCCCC3 (single isomer, unassigned; enantiomer 1) [Example 350] :: > 3.3e-05 M
3. Cn1nc(CN2CCCCC2=O)c2c1COCCCCn1c(C(=O)O)c(CCCOc3cccc4ccccc34)c3cccc-2c31 (single isomer, unassigned; enantiomer 2) :: > 3.3e-05 M

---

Below: a set of entries, each annotated with reported pIC50.
System: SUDHL5
pIC50: −log10 of the molar value.
quantity-name: pIC50

1. Cn1nc(CN2CCOCC2)c2c1COCCCCn1c(C(=O)O)c(CCCOc3cccc4ccccc34)c3cccc-2c31 (single isomer, unassigned; enantiomer 1) :: < 4.48
2. Cn1nc(CN2CCOCC2)c2c1COCCCn1c(C(=O)O)c(CCCOc3cccc4ccccc34)c3cccc-2c31 (single isomer, unassigned; enantiomer 1) [Example 139] :: < 4.48
3. Cc1c2c(nn1CC(F)(F)F)COCCCCn1c(C(=O)O)c(CCCOc3cccc4ccccc34)c3cccc-2c31 :: < 4.48

---

Biological target: UniProt Q07820
Assay: Protein-protein interaction assay MCL-1/Noxa BH3 peptide (MCL-1 assay), TR-FRET
Type: binding
Details: MBP-MCL-1 / Noxa BH3-derived peptide, median
Below: a set of entries, each annotated with reported IC50.
quantity-name: IC50 (nM)

1. Cc1c2c(nn1C)CN(C)CCCCn1c(C(=O)O)c(CCCOc3cccc4ccccc34)c3cccc-2c31 (racemic) [Example 067] :: 22.1
2. Cn1nc(COc2ccc(N3CCN(S(C)(=O)=O)CC3)cc2)c2c1COCCCCn1c(C(=O)O)c(CCCOc3cccc4ccccc34)c3cccc-2c31 (racemic) [Example 1-8] :: 1.87
3. Cc1ccc2c(C(C)CCOc3cccc4ccccc34)c(C(=O)O)n3c2c1-c1c(C)nn(C)c1COCCCC3 (single isomer, unassigned) [Example 257] :: 669
4. CCc1c2c(nn1C)CN(C)CCCn1c(C(=O)O)c(CCCOc3cccc4ccccc34)c3cccc-2c31 (single isomer, unassigned; enantiomer 1) [Example 142] :: 5.23
5. Cc1ccc2c(OCCCc3c(C(=O)O)n4c5c(cccc35)-c3c(nn(C)c3C)COCCCC4)cccc2c1 (single isomer, unassigned; enantiomer 2) [Example 309] :: 133
